Where do these numbers come from? They come from patent US20130230533A1.

test-system: T1, human CD48 (on primary human peripheral blood mononuclear cells) (human, UniProt P09326 27-220)
T1 sequence: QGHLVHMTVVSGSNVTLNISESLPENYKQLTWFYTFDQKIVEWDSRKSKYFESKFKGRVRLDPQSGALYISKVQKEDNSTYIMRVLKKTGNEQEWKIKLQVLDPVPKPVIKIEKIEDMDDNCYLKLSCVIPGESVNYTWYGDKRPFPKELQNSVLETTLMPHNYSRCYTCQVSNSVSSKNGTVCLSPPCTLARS
experiment: cell-based or functional assay
I'd be grateful if you could share measured % Blockade of IFNγ release, MLR; D4 for these entries.
Give bare numbers, in %.

List reported % Blockade of IFNγ release, MLR; D4 for each of these binders:
1. H4H1775P (antibody, human IgG4, V domains shown, Human IgG4 Fc (H4H)) VH: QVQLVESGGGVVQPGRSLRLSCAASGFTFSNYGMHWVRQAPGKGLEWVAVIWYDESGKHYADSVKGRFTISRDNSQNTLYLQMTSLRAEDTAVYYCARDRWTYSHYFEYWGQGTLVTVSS VL: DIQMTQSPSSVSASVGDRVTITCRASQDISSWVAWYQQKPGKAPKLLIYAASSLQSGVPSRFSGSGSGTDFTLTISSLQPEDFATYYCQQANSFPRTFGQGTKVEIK
2. H4H1763N (antibody, human IgG4, V domains shown, Human IgG4 Fc (H4H) form of 1763N) VH: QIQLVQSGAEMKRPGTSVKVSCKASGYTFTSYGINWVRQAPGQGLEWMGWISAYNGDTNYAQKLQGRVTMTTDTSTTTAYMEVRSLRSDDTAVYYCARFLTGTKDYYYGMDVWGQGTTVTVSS VL: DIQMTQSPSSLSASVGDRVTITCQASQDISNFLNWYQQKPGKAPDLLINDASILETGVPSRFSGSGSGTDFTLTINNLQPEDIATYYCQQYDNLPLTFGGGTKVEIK

Response given:
1. 37
2. 52

List reported % Blockade of IFNγ release, MLR; D4 for each of these binders:
1. H4H1772P (antibody, human IgG4, V domains shown, Human IgG4 Fc (H4H)) VH: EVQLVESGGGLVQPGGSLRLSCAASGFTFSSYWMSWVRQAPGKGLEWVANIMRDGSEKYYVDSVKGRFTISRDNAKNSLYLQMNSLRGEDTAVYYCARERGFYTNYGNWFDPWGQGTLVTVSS VL: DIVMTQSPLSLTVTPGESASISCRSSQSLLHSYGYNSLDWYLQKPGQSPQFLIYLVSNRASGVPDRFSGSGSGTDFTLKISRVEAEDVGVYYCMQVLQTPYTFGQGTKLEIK
2. H4H1707N (antibody, V domains shown, Human IgG4 Fc (H4H) form of 1707N) VH: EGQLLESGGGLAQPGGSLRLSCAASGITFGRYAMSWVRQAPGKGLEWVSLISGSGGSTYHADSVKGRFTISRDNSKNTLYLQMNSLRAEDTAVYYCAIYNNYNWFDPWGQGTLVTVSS VL: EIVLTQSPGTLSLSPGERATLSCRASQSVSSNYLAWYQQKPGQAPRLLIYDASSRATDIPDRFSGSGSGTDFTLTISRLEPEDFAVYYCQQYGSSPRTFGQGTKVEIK

Response given:
[39, 20]
